B1: NCF4 (parent)
chain: FVKILKDFPEEDDPTNWLRCYYYE

variants of: B1; test: protein stability index of a GFP-peptide fusion (GPS, HEK-293T) (PSI 1-6); higher = more stable; details: c terminus: a fixed tail appended;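 further: lentivirally expressed fusions sorted by FACS into six bins by GFP to DsRed ratio, PSI derived from sequencing read proportions per bin multiplied by bin number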

>  <Mutant Id>
R19D

>  <protein stability index>
2.32

$$$$
>  <Mutant Id>
E24D

>  <protein stability index>
1.39

$$$$
>  <Mutant Id>
D12E

>  <protein stability index>
2.04

$$$$
>  <Mutant Id>
I4S

>  <protein stability index>
2.7

$$$$
>  <Mutant Id>
F8S

>  <protein stability index>
2.92

$$$$
>  <Mutant Id>
P9K

>  <protein stability index>
1.37

$$$$
>  <Mutant Id>
Y23F

>  <protein stability index>
2.27

$$$$
>  <Mutant Id>
Y23R

>  <protein stability index>
1.96

$$$$
>  <Mutant Id>
E24R

>  <protein stability index>
1.51

$$$$
>  <Mutant Id>
E11L

>  <protein stability index>
2.74

$$$$
>  <Mutant Id>
E24W

>  <protein stability index>
1.6

$$$$
>  <Mutant Id>
E11D

>  <protein stability index>
1.88

$$$$
>  <Mutant Id>
T15P

>  <protein stability index>
2.88

$$$$
>  <Mutant Id>
E24M

>  <protein stability index>
2.05

$$$$
>  <Mutant Id>
F1L

>  <protein stability index>
2.17

$$$$
>  <Mutant Id>
D13P

>  <protein stability index>
1.4

$$$$
>  <Mutant Id>
E24N

>  <protein stability index>
1.5

$$$$
>  <Mutant Id>
R19K

>  <protein stability index>
4.32

$$$$
>  <Mutant Id>
R19Y

>  <protein stability index>
3.01

$$$$
>  <Mutant Id>
Y23P

>  <protein stability index>
3.56

$$$$
>  <Mutant Id>
D13F

>  <protein stability index>
3.57

$$$$
>  <Mutant Id>
D7L

>  <protein stability index>
2.16

$$$$
